B1: Homeobox protein cut-like 2, residues 895 to 963; numbered along this chain, O14529 (parent)
chain: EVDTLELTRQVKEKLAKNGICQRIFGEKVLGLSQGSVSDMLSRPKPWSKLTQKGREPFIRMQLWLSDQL

# Variants of: B1
# method_description: abundance fitness (aPCA) (normalised: wild type 0, dead -1); higher = more abundant; growth selection in yeast, the domain comes from the species named
# conditions: Homo sapiens
Classification field. Basis: abundance fitness. Definitions: bin 0 = under -0.3, bin 1 = from -0.3 up to -0.09, bin 2 = -0.09 and over

Hey, which category is EVDTLELTRQVKEKLAKNGICQRIFGEKVLGLSQGSVSTMLSRPKPWSKLTQKGREPFIRMQLWLSDQL [D39T] in, do you know?
bin 1

Hey, which category is EVDTLELTRQVKEKLAKNGICQRIFGEKVLGLSQGSVSDMLSRPKPWSKLTQKGREPFIRMQNWLSDQL [L63N] in, do you know?
bin 2

Hey, which category is EVDTLELTRQVKEKLAKNGICQRIFGEKVLGLSQMSVSDMLSRPKPWSKLTQKGREPFIRMQLWLSDQL [G35M] in, do you know?
bin 1

Hey, which category is EVDTLELTRQVKEKLAKNGICQRIFGEKVLGLSQGSVKDMLSRPKPWSKLTQKGREPFIRMQLWLSDQL [S38K] in, do you know?
bin 2

Hey, which category is EVDTLELTRQVKEKLAKNGICQRIFGEKVLGLSQGSVSDMLSRPKPWSKLTQKGREPFERMQLWLSDQL [I59E] in, do you know?
bin 2

Hey, which category is EVDTLELTRQVKEKLAKNGICQRIFGEKVLGLSQGSVSDMLSRPKAWSKLTQKGREPFIRMQLWLSDQL [P46A] in, do you know?
bin 1

Hey, which category is EVDTLELTRQVKEKLAKNGICRRIFGEKVLGLSQGSVSDMLSRPKPWSKLTQKGREPFIRMQLWLSDQL [Q22R] in, do you know?
bin 2

Hey, which category is EVDTLELTRQVKEKLAKNGICQRIFGEKVLGLSQGSVSDMLSRPKPTSKLTQKGREPFIRMQLWLSDQL [W47T] in, do you know?
bin 0

Hey, which category is EVDTLELTRQVKEKLAKNGNCQRIFGEKVLGLSQGSVSDMLSRPKPWSKLTQKGREPFIRMQLWLSDQL [I20N] in, do you know?
bin 0

Hey, which category is EVDTLELTRKVKEKLAKNGICQRIFGEKVLGLSQGSVSDMLSRPKPWSKLTQKGREPFIRMQLWLSDQL [Q10K] in, do you know?
bin 2

Hey, which category is EVDTLELTRQVKEKLAKEGICQRIFGEKVLGLSQGSVSDMLSRPKPWSKLTQKGREPFIRMQLWLSDQL [N18E] in, do you know?
bin 2

Hey, which category is EVDTLELTRQVKEKSAKNGICQRIFGEKVLGLSQGSVSDMLSRPKPWSKLTQKGREPFIRMQLWLSDQL [L15S] in, do you know?
bin 2

Hey, which category is EVDTLELTRQVKLKLAKNGICQRIFGEKVLGLSQGSVSDMLSRPKPWSKLTQKGREPFIRMQLWLSDQL [E13L] in, do you know?
bin 1

Hey, which category is EVDTLELTRQVKEKLAKNGICQRIFGEKVLGLSQGSVSDMLSRPKPWSKLTQKGREPFIRMQLWLSLQL [D67L] in, do you know?
bin 0

Hey, which category is EVDTLELTRQVKEKLAKNGICQRIEGEKVLGLSQGSVSDMLSRPKPWSKLTQKGREPFIRMQLWLSDQL [F25E] in, do you know?
bin 0

Hey, which category is EVDTRELTRQVKEKLAKNGICQRIFGEKVLGLSQGSVSDMLSRPKPWSKLTQKGREPFIRMQLWLSDQL [L5R] in, do you know?
bin 2

Hey, which category is EVDTLELTRQVKEKLAKNGICQRIFGEKVRGLSQGSVSDMLSRPKPWSKLTQKGREPFIRMQLWLSDQL [L30R] in, do you know?
bin 1

Hey, which category is EVDTLELTRQVKEKLAKNGICQRIFGEKVLGLSQGSVSDMLSRPKPWSKLTQKGREQFIRMQLWLSDQL [P57Q] in, do you know?
bin 2

Hey, which category is EVDTLELTRQVKEKLAKNGICQRIFGEKVLGLSQGSVSQMLSRPKPWSKLTQKGREPFIRMQLWLSDQL [D39Q] in, do you know?
bin 2

Hey, which category is EVDTLELTRQVKEKLAKNIICQRIFGEKVLGLSQGSVSDMLSRPKPWSKLTQKGREPFIRMQLWLSDQL [G19I] in, do you know?
bin 0

Hey, which category is EVDTLELTRQVKEKLAKNGICTRIFGEKVLGLSQGSVSDMLSRPKPWSKLTQKGREPFIRMQLWLSDQL [Q22T] in, do you know?
bin 1

Hey, which category is EVDTLELTRQVKEKLAKNGICQRIFGEKVLGLSQGSVSDMLSRPKPWSKGTQKGREPFIRMQLWLSDQL [L50G] in, do you know?
bin 0

Hey, which category is EVDTLELTRQVKEKLAKNGICQRIFGEKVLGLSQGSVSIMLSRPKPWSKLTQKGREPFIRMQLWLSDQL [D39I] in, do you know?
bin 1

Hey, which category is EVDTLELTRQVKEKLAKNGICQRIFGEAVLGLSQGSVSDMLSRPKPWSKLTQKGREPFIRMQLWLSDQL [K28A] in, do you know?
bin 1

Hey, which category is EVDTLELTRQVKEKLAKNGICQRIFGEKVLGLSQGSVSDMLSRPKPWSKLTQKYREPFIRMQLWLSDQL [G54Y] in, do you know?
bin 1

Hey, which category is EVDTLELTRQVKEKLAKNGICQRIFGEKVLGLSQGSVSDMLSRPKPWSKLTQKGREPFIRMQLWLSFQL [D67F] in, do you know?
bin 0

Hey, which category is EVDTLELTQQVKEKLAKNGICQRIFGEKVLGLSQGSVSDMLSRPKPWSKLTQKGREPFIRMQLWLSDQL [R9Q] in, do you know?
bin 1

Hey, which category is EVDTLELTRQVKEKLAKNGICQRINGEKVLGLSQGSVSDMLSRPKPWSKLTQKGREPFIRMQLWLSDQL [F25N] in, do you know?
bin 0

Hey, which category is EVDTLELTRQVKEKLAKNGICQRIFGEKVLGLSQGSVSDMLSRPKPWWKLTQKGREPFIRMQLWLSDQL [S48W] in, do you know?
bin 0

Hey, which category is KVDTLELTRQVKEKLAKNGICQRIFGEKVLGLSQGSVSDMLSRPKPWSKLTQKGREPFIRMQLWLSDQL [E1K] in, do you know?
bin 2

Hey, which category is EVDQLELTRQVKEKLAKNGICQRIFGEKVLGLSQGSVSDMLSRPKPWSKLTQKGREPFIRMQLWLSDQL [T4Q] in, do you know?
bin 1

Hey, which category is EVDTLELTRQVKEKLAKNGYCQRIFGEKVLGLSQGSVSDMLSRPKPWSKLTQKGREPFIRMQLWLSDQL [I20Y] in, do you know?
bin 1

Hey, which category is EVDTLELTRQVKEKLAKNGICQRIFGEKVLGLSFGSVSDMLSRPKPWSKLTQKGREPFIRMQLWLSDQL [Q34F] in, do you know?
bin 2

Hey, which category is EVDTLSLTRQVKEKLAKNGICQRIFGEKVLGLSQGSVSDMLSRPKPWSKLTQKGREPFIRMQLWLSDQL [E6S] in, do you know?
bin 1

Hey, which category is EVDTLELTRQVNEKLAKNGICQRIFGEKVLGLSQGSVSDMLSRPKPWSKLTQKGREPFIRMQLWLSDQL [K12N] in, do you know?
bin 1

Hey, which category is EVDTLELTRQYKEKLAKNGICQRIFGEKVLGLSQGSVSDMLSRPKPWSKLTQKGREPFIRMQLWLSDQL [V11Y] in, do you know?
bin 0

Hey, which category is EVDTLELTRQVKEKLAKNGICQRIFGEKVLGLNQGSVSDMLSRPKPWSKLTQKGREPFIRMQLWLSDQL [S33N] in, do you know?
bin 2
